tested on: Monocotyledonous and dicotyledonous test plants; assay: Example B1 herbicidal action, application pre-emergence (Table B1b); type: in vivo; settings: Amaranthus, 250 g/ha, evaluated after 4 weeks
Reported endpoint: herbicidal action (damage rating 0-10), Amaranthus

See these solved cases before continuing.
Enquiry: Determine reported herbicidal action (damage rating 0-10), Amaranthus for CC1(C)CC(S(=O)(=O)C(Br)c2ccccc2OC(F)F)=NO1 (racemic) [1.78] ; test system: Monocotyledonous and dicotyledonous test plants.
Return: 10

Enquiry: With Monocotyledonous and dicotyledonous test plants as the test system, provide measured herbicidal action (damage rating 0-10), Amaranthus for this molecule: Cc1ccc(F)c(C(Br)S(=O)(=O)C2=NOC(C)(C)C2)c1F (centres unmarked) [1.102]
Return: 8

---
Enquiry: Provide herbicidal action (damage rating 0-10), Amaranthus, tested on Monocotyledonous and dicotyledonous test plants, for Cc1cccc(C(Cl)S(=O)(=O)C2=NOC(C)(C)C2)c1 (centres unmarked) [Compound No. 1.30] .
Return: 0

Enquiry: Find the measured herbicidal action (damage rating 0-10), Amaranthus of CC1(C)CC(S(=O)(=O)C(F)(Cl)c2ccccc2[S+]([O-])C(F)(F)F)=NO1 (centres unmarked) [1.97] with Monocotyledonous and dicotyledonous test plants as test system.
Return: 8

Enquiry: Fill in: herbicidal action (damage rating 0-10), Amaranthus on Monocotyledonous and dicotyledonous test plants, entry CC1(C)CC(S(=O)(=O)C(F)(F)c2ccc(F)cc2F)=NO1 [1.118]
Return: 10
